# credit: PubChem BioAssay (NCI)

- run-description: NCI Yeast Anticancer Drug Screen. Data for the mlh1 rad18 strain (AID 175)
- condition-parameters: S. cerevisiae mlh1 rad18 strain growth inhibition; at 50.0 µM
This is part of a sample that, as a whole, favours compounds with a hit. Of some 79,000 tested, about 15% had one in any assay. Active and inactive are the calls of the source. Cut-off read from the data, not from the text of the source: active = growth inhibition above about 70%; inactive = the rest.
Entry note: the call must match one of y = active, n = inactive

Please review the following examples before continuing.
CP(C)CC[PH+](CC[PH+](C)C)CC[PH+](C)C.[C-]#[O+].[C-]#[O+].[W] ... n
O=C(Nc1ccc(S(=O)(=O)F)cc1)/C(=C\c1ccc([N+](=O)[O-])cc1)c1cccc(Cl)c1 ... n
Cc1c[nH]c2c1C13CC1CN(C(=O)c1cc4cc(NC(=O)c5cc6ccccc6o5)ccc4[nH]1)C3=CC2=O (stereo unspecified) ... y
CC(C)C1C=Cc2ccccc21 (stereo unspecified) ... n
COc1cc2c(cc1OC)[C@@H]1C(=O)c3ccc4c(c3O[C@@H]1CO2)C[C@H](C(C)C)O4 ... n
CCOC(OCC)c1ccc(C(F)(F)F)cc1.[C-]#[O+].[C-]#[O+].[C-]#[O+].[Cr] ... n

**Q:** In this assay, the call recorded for OCC1CCCN2CCCCC12 (stereo unspecified) was what?
**A:** n

**Q:** Could you kindly confirm the outcome this assay logged for `O=C(O)CCCC(=O)CCCC(=O)O` ?
**A:** n

**Q:** Which outcome was assigned to `CSC(=S)NNC(=O)c1cccc(S(=O)(=O)F)c1` in this test?
**A:** n

**Q:** Give the logged outcome of this assay for the following compound: `O=[N+]([O-])c1cccc2cccnc12`
**A:** n

**Q:** What outcome does the record of this test show for `CCOS(=O)(=O)c1ccc(C)cc1` ?
**A:** n
